system tested: SSTR4 (Homo sapiens, UniProt P31391)
Construct: host or cells: CHO-K1
Sequence (P31391 whole entry): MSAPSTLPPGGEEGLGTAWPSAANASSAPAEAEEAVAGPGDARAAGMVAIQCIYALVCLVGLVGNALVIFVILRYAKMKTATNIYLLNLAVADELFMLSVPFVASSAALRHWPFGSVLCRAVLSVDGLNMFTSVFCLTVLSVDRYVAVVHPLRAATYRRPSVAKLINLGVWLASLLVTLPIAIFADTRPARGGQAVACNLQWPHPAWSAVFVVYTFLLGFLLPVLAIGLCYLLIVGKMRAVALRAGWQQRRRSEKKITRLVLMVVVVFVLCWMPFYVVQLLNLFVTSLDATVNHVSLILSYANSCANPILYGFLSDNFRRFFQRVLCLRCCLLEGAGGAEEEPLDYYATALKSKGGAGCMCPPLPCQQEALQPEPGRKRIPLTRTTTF
experiment description: SSTR4 I-125 somatostatin competition binding assay (CHO-K1 membranes)
measurement setup: competition with I-125 somatostatin, membranes from CHO-K1 overexpressing SSTR4; read-out: SSTR4 Binding pIC50 (converted)
// returns NO unless IC50 is strictly below 200 nM, in which case YES

1. COc1c(F)cccc1C(C)(C)NC(=O)[C@H](C)CN1CCC1 (single isomer, unassigned); YES
2. Cc1cccnc1OCC(C)(C)NC(=O)C[C@H]1CCCN1C; NO
3. Cc1cccc(C(C)(C)NC(=O)CCN2CCC2)c1Cl; YES
4. Cc1ccccc1C(C)(C)NC(=O)[C@H](C)CN1CCC1 (single isomer, unassigned); YES
5. Cc1ccc(C(C)(C)NC(=O)[C@@H](C)CN2CCC2)cc1 (single isomer, unassigned); YES
6. Cc1cccc(C(C)(C)NC(=O)C[C@@H]2CCCN2C)c1C; NO

# input for lookup
*Q* Hi there! Is IC50 for Cc1cccnc1OCC(C)(C)NC(=O)CC12CCCN1CCC2 below 200 nM, do you know?
*A* NO
